Values were extracted from patent US20060226082A1.

molecular target: UniProt:P56658
Attribute measured: Ki (nM)
Supply the numeric figure in nM, leaving out any unit text.

Per the records, this compound ( CCCCCCC(C(C)O)n1cnc2c(N)ncnc21 (stereo not drawn) [EHNA, erythro-9-(2-hydroxy-3-nonyl)adenine] ) has Ki equal to 15.7

====

Target: adenosine deaminase (ADA, Type V, EC 3.5.4.4) entrapped in monolithic silica column (Bos taurus, UniProt P56658)
Construct: Adenosine deaminase (ADA, Type V, from bovine intestine, EC 3.5.4.4); purchased Sigma-Aldrich (Oakville, Ontario, Canada) Type V (catalogue number not given); host or cells: bovine intestine (tissue-derived)
Sequence (P56658 1-363): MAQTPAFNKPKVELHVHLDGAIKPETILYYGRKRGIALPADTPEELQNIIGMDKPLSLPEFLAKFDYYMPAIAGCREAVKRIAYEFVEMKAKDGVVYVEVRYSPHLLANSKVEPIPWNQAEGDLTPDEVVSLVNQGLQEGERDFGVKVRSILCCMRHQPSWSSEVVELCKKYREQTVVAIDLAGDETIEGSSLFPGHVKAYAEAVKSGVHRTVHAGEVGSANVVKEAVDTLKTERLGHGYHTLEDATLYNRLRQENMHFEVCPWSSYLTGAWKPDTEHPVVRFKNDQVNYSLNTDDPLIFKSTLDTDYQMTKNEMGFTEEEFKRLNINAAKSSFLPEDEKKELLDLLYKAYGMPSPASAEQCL
Assay: ADA enzyme reactor/MS quantitative determination of IC50, KI and Km
Type: biochemical, bovine
Conditions: IC50 [EHNA], EHNA in a mixture (open circles, FIG. 8A)
Attribute measured: pIC50
Keep it numeric: pIC50 is minus log10 of the concentration in mol/L.

Per the records, this molecule ( CCCCCCC(C(C)O)n1cnc2c(N)ncnc21 (stereo not drawn) [EHNA, erythro-9-(2-hydroxy-3-nonyl)adenine] ) has pIC50 equal to 7.53
